Test system: Candida albicans ATCC 64548
Assay: Paper disk method, enhancing action for activities of azole antifungal agents
Type: cell-based
Settings: 100 μg/8 mm disk; GYF, fluconazole 0.5 μg/ml; 24 hours
Measured Inhibition activity (inhibition ring mm) C. albicans ATCC 64548 GYF values are reported for all entries that follow.
endpointLabel: Inhibition activity (inhibition ring mm) C. albicans ATCC 64548 GYF

compound="CCC(OC(=O)c1ccccc1)C(C)(O)C1OC(=O)C(C)C(OC2CC(C)(OC)C(OC(=O)c3ccccc3)C(C)O2)C(C)C(OC2OC(C)CC(N(C)C)C2OC(=O)c2ccccc2)C2(C)CC(C)=C(O2)C1C (centres unmarked) [Compound 770]" targetundertest="Candida albicans ATCC 64548" resultnumber=11
compound="CCC1OC(=O)C(C)C(OC2CC(C)(OC)C(O)C(C)O2)C(C)C(OC2OC(C)CC(N(C)CC=CCN(C)C3CC(C)OC(OC4C(C)C(OC5CC(C)(OC)C(O)C(C)O5)C(C)C(=O)OC(CC)C(C)(O)C(O)C(C)C(=O)C(C)CC4(C)O)C3O)C2O)C(C)(O)CC(C)C(=O)C(C)C(O)C1(C)O (centres unmarked) [Compound 757]" targetundertest="Candida albicans ATCC 64548" resultnumber=17
compound="CCCCCC(=O)OC1C(C)OC(OC2C(C)C(=O)OC(C(C)(O)C(CC)OC(=O)CCCCC)C(C)C3=C(C)CC(C)(O3)C(OC3OC(C)CC(N(C)CC)C3O)C2C)CC1(C)OC (centres unmarked) [Compound 853]" targetundertest="Candida albicans ATCC 64548" resultnumber=16
compound="CCC(=O)OC1C(C)OC(OC2C(C)C(=O)OC(C(C)(O)C(CC)OC(=O)CC)C(C)C3=C(C)CC(C)(O3)C(OC3OC(C)CC(N(C)C)C3O)C2C)CC1(C)OC (centres unmarked) [Compound 776]" targetundertest="Candida albicans ATCC 64548" resultnumber=15
compound="CCC1OC(=O)C(C)C(OC2CC(C)(OC)C(O)C(C)O2)C(C)C(OC2OC(C)CC(N(C)CC=CCN(C)C3CC(C)OC(OC4C(C)C(OC5CC(C)(OC)C(O)C(C)O5)C(C)C(=O)OC(CC)C(C)(O)C(O)C(C)C(=O)C(C)CC4(C)OC)C3O)C2O)C(C)(OC)CC(C)C(=O)C(C)C(O)C1(C)O (centres unmarked) [Compound 758]" targetundertest="Candida albicans ATCC 64548" resultnumber=15

---

System: Aspergillus niger ATCC 6275
Test: Paper disk method, enhancing action for activities of azole antifungal agents
Type: cell-based
Conditions: 10 μg/8 mm disk; GYF, fluconazole 10 μg/ml; 48 hours
endpointLabel: Inhibition activity (inhibition ring mm) A. niger ATCC 6275 GYF

compound="CCC1OC(=O)C(C)C(OC2CC(C)(OC)C(O)C(C)O2)C(C)C(OC2OC(C)CC(N(C)C)C2O)C(C)(O)CC(C)C(=NOCC=CCN2CCN(CC=CCON=C3C(C)CC(C)(O)C(OC4OC(C)CC(N(C)C)C4O)C(C)C(OC4CC(C)(OC)C(O)C(C)O4)C(C)C(=O)OC(CC)C(C)(O)C(O)C3C)CC2)C(C)C(O)C1(C)O (centres unmarked)" targetundertest="Aspergillus niger ATCC 6275" resultnumber=15
compound="CCCCCC(=O)OC1C(C)OC(OC2C(C)C(=O)OC(C(C)(O)C(CC)OC(=O)CCCCC)C(C)C3=C(C)CC(C)(O3)C(OC3OC(C)CC(N(C)C)C3OC(C)=O)C2C)CC1(C)OC (centres unmarked)" targetundertest="Aspergillus niger ATCC 6275" resultnumber=10
compound="CCC1OC1(C)C1OC(=O)C(C)C(OC2CC(C)(OC)C(OS(=O)(=O)Cc3ccccc3)C(C)O2)C(C)C(OC2OC(C)CC(N(C)C)C2O)C2(C)CC(C)=C(O2)C1C (centres unmarked)" targetundertest="Aspergillus niger ATCC 6275" resultnumber=11
compound="CCC1OC1(C)C1OC(=O)C(C)C(OC2CC(C)(OC)C(OS(=O)(=O)c3ccccc3)C(C)O2)C(C)C(OC2OC(C)CC(N(C)C)C2OC(C)=O)C2(C)CC(C)=C(O2)C1C (centres unmarked)" targetundertest="Aspergillus niger ATCC 6275" resultnumber=14
compound="CCC(OC(=O)c1ccccc1)C(C)(O)C1OC(=O)C(C)C(OC2CC(C)(OC)C(OC(=O)c3ccccc3)C(C)O2)C(C)C(OC2OC(C)CC(N(C)C)C2OC(=O)c2ccccc2)C2(C)CC(C)=C(O2)C1C (centres unmarked)" targetundertest="Aspergillus niger ATCC 6275" resultnumber=11
compound="CCC(OC(=O)c1ccccc1)C(C)(O)C1OC(=O)C(C)C(OC2CC(C)(OC)C(OC(=O)c3ccccc3)C(C)O2)C(C)C(OC2OC(C)CC(N(C)C)C2O)C2(C)CC(C)=C(O2)C1C (centres unmarked)" targetundertest="Aspergillus niger ATCC 6275" resultnumber=12
compound="CCC(=O)OC1C(C)OC(OC2C(C)C(=O)OC(C(C)(O)C(CC)OC(=O)CC)C(C)C3=C(C)CC(C)(O3)C(OC3OC(C)CC(N(C)C)C3O)C2C)CC1(C)OC (centres unmarked)" targetundertest="Aspergillus niger ATCC 6275" resultnumber=16
compound=CC[C@H]1OC(=O)[C@H](C)[C@@H](O[C@H]2C[C@@](C)(OC)[C@@H](O)[C@H](C)O2)[C@H](C)[C@@H](O[C@@H]2O[C@H](C)C[C@H](N(C)C/C=C/CO/N=C3\[C@H](C)C[C@@](C)(O)[C@H](O[C@@H]4O[C@H](C)C[C@H](N(C)C)[C@H]4O)[C@@H](C)[C@H](O[C@H]4C[C@@](C)(OC)[C@@H](O)[C@H](C)O4)[C@@H](C)C(=O)O[C@H](CC)[C@@](C)(O)[C@H](O)[C@H]3C)[C@H]2O)[C@](C)(O)C[C@@H](C)C(=O)[C@H](C)[C@@H](O)[C@]1(C)O targetundertest="Aspergillus niger ATCC 6275" resultnumber=14

---

Measured Inhibition activity (inhibition ring mm) A. niger ATCC 6275 GYF values are reported for all entries that follow.
Tested on: Aspergillus niger ATCC 6275
Experiment: Paper disk method, enhancing action for activities of azole antifungal agents
Assay type: cell-based
Details: 10 μg/8 mm disk; GYF, fluconazole 10 μg/ml; 48 hours
endpointLabel: Inhibition activity (inhibition ring mm) A. niger ATCC 6275 GYF

compound="CCC(OC(=O)c1ccccc1)C(C)(O)C1OC(=O)C(C)C(OC2CC(C)(OC)C(OC(=O)c3ccccc3)C(C)O2)C(C)C(OC2OC(C)CC(N(C)C)C2OC(C)=O)C2(C)CC(C)=C(O2)C1C (stereo not drawn)" unitabbrev=mm resultnumber=10
compound="CCC(=O)OC1C(C)OC(OC2C(C)C(=O)OC(C(C)(O)C(CC)OC(=O)CC)C(C)C3=C(C)CC(C)(O3)C(OC3OC(C)CC(N(C)C)C3OC(C)=O)C2C)CC1(C)OC (stereo not drawn)" unitabbrev=mm resultnumber=14
compound="CCC1OC(=O)C(C)C(OC2CC(C)(OC)C(O)C(C)O2)C(C)C(OC2OC(C)CC(N(C)C)C2O)C(C)(O)CC(C)C(=NOCC=CCNCCN)C(C)C(O)C1(C)O (stereo not drawn)" unitabbrev=mm resultnumber=12

---

Test system: Aspergillus niger ATCC 6275
Experiment: Paper disk method, enhancing action for activities of azole antifungal agents
Type: cell-based
Conditions: 50 μg/8 mm disk; GYF, fluconazole 10 μg/ml; 48 hours
endpointLabel: Inhibition activity (inhibition ring mm) A. niger ATCC 6275 GYF

compound="CCC(=O)OC1C(C)OC(OC2C(C)C(=O)OC(C(C)(O)C(CC)OC(=O)CC)C(C)C3=C(C)CC(C)(O3)C(OC3OC(C)CC(N(C)C)C3O)C2C)CC1(C)OC (centres unmarked)" resultnumber=16
compound="CCC1OC1(C)C1OC(=O)C(C)C(OC2CC(C)(OC)C(OS(=O)(=O)c3ccccc3)C(C)O2)C(C)C(OC2OC(C)CC(N(C)C)C2OC(C)=O)C2(C)CC(C)=C(O2)C1C (centres unmarked)" resultnumber=17
compound="CCCCCC(=O)OC1C(C)OC(OC2C(C)C(=O)OC(C(C)(O)C(CC)OC(=O)CCCCC)C(C)C3=C(C)CC(C)(O3)C(OC3OC(C)CC(NC)C3O)C2C)CC1(C)OC (centres unmarked)" resultnumber=8
compound="CCC1OC(=O)C(C)C(OC2CC(C)(OC)C(O)C(C)O2)C(C)C(OC2OC(C)CC(N(C)CCN(C)C3CC(C)OC(OC4C(C)C(OC5CC(C)(OC)C(O)C(C)O5)C(C)C(=O)OC(CC)C(C)(O)C(O)C(C)C(=O)C(C)CC4(C)O)C3O)C2O)C(C)(O)CC(C)C(=O)C(C)C(O)C1(C)O (centres unmarked)" resultnumber=17
compound="CCCCCC(=O)OC1C(C)OC(OC2C(C)C(=O)OC(C(C)(O)C(CC)OC(=O)CCCCC)C(C)C3=C(C)CC(C)(O3)C(OC3OC(C)CC(N(C)C)C3OC(C)=O)C2C)CC1(C)OC (centres unmarked)" resultnumber=10
compound="CCC1OC(=O)C(C)C(OC2CC(C)(OC)C(O)C(C)O2)C(C)C(OC2OC(C)CC(N(C)C)C2O)C(C)(O)CC(C)C(=NOCC=CCNCCN)C(C)C(O)C1(C)O (centres unmarked)" resultnumber=15
compound="CCC(OC(C)=O)C(C)(O)C1OC(=O)C(C)C(OC2CC(C)(OC)C(OC(C)=O)C(C)O2)C(C)C(OC2OC(C)CC(NC)C2O)C2(C)CC(C)=C(O2)C1C (centres unmarked)" resultnumber=14
compound=CC[C@H]1OC(=O)[C@H](C)[C@@H](O[C@H]2C[C@@](C)(OC)[C@@H](O)[C@H](C)O2)[C@H](C)[C@@H](O[C@@H]2O[C@H](C)C[C@H](N(C)C/C=C/CO/N=C3\[C@H](C)C[C@@](C)(O)[C@H](O[C@@H]4O[C@H](C)C[C@H](N(C)C)[C@H]4O)[C@@H](C)[C@H](O[C@H]4C[C@@](C)(OC)[C@@H](O)[C@H](C)O4)[C@@H](C)C(=O)O[C@H](CC)[C@@](C)(O)[C@H](O)[C@H]3C)[C@H]2O)[C@](C)(O)C[C@@H](C)C(=O)[C@H](C)[C@@H](O)[C@]1(C)O resultnumber=21

# credit: patent US20050176655A1
